// merged dataset of pIC50 values, system = RORc (Homo sapiens), multiple refs
pIC50: −log10 of the molar value.
readout_kind: pIC50

Examples from the recorded data:
>>> print(df.to_string())
                                   molecule       assayed_target  recorded_value
0  CC(C)CN(c1cccc(Cl)c1)S(=O)(=O)c1ccc(OC2CCN(S(C)(=O)=O)CC2)cc1  RORc (Homo sapiens)            8.10
1  Cc1nc(CO)nn1-c1nccc([C@@]23CC[C@@H](c4cc(-c5c(F)cccc5F)nnc42)C3(C)C)n1  RORc (Homo sapiens)            7.22
2  CC(=O)N1CCO[C@H]([C@@]23CC[C@@H](c4cc(-c5c(F)cccc5F)nnc42)C3(C)C)C1  RORc (Homo sapiens)            6.51

(P) CC1(C)[C@H]2CC[C@]1(c1cncc(-c3nc(C4(O)CC4)n[nH]3)n1)c1nnc(-c3c(F)cccc3F)cc12
(Q) CC(NC(=O)c1cnco1)c1cc(F)c(CN2[C@@H](C)CC[C@H](c3ccccc3)S2(=O)=O)cc1F (stereo in doubt)
(R) Cc1nnc(CO[C@@]23CC[C@@H](c4cc(-c5c(F)cccc5F)nnc42)C3(C)C)o1
Request: # desc sort on pIC50 across 3 molecules Please write the labels in the order that was asked for.
Result: P, Q, R
